Kd: recorded values
- Test System: HLA-B*08:01
- Assay Remarks: IEDB peptide-MHC binding, purified MHC/competitive/radioactivity; filed as Kd, often an IC50 or EC50 that approximates it; bounds were set here for any values at or beyond the usual limits of such assays
- Condition Parameters: source organism: Vaccinia virus WR
In your response, put the unit directly after the numeric value.

Biosequence	Test System	Kd
KIFFRPTTI	HLA-B*08:01	1740 nM

Request: If you can, please state the reported Kd value of MSIISFFPF .
Result: 857 nM

Request: Looking for the measured Kd of SFKFRPGSL , can you help?
Result: 2.98 nM

Request: Fill in: Kd of YAKSKRMAE is ___
Result: 31.1 nM

Request: Fill blank: measured Kd of the sequence FIFLKKNEL is ____.
Result: 96.6 nM

Request: I would be grateful if you could share the reported Kd for LLKPRCNPA .
Result: 1.16 nM

Request: Record request: Kd value, item SRISRFANL
Result: 19.6 nM

Request: Entry RFRNHMCLV : reported Kd = ?
Result: 864 nM
